tested on: T1, human apelin receptor (human, UniProt P35414 1-380)
T1 construct: whole, on cells; also called AGTRL1; APJ
T1 sequence (looked up): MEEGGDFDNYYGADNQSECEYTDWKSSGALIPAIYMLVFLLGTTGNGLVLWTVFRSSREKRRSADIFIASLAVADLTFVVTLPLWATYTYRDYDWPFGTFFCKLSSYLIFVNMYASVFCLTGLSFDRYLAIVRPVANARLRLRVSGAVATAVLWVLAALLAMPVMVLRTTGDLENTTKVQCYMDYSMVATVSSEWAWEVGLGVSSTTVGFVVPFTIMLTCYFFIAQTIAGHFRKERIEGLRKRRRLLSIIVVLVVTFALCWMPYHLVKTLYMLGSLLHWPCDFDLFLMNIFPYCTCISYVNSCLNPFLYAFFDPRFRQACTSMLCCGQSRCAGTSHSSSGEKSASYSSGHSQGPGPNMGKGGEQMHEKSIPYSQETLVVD
test summary: radioligand competition vs [Glp65,Nle75,Tyr77][125I]apelin-13 on CHO-K1 cells expressing human apelin receptor (Cerep); Cheng-Prusoff
Positions of bridges follow the written chain, without caps; N, C: chain ends. Non-standard residues stand in square brackets, D forms with d. No end group written: not given here. *: point of attachment. Phe(3,4,5-F3) = N[C@@H](Cc1cc(F)c(F)c(F)c1)C(=O)O; Myristoyl = CCCCCCCCCCCCCC(=O)*; pGlu = O=C1CC[C@@H](C(=O)O)N1; Nle = CCCC[C@H](N)C(=O)O; Abu = CC[C@H](N)C(=O)O; Aib = CC(C)(N)C(=O)O
log10 Ki for assorted binders
# log10 transformed; quantity=Ki; unit=nM

Would you please look over these solved cases?
Myristoyl-CRPR[Nle]CKHCR[Aib]R[Nle][Phe(3,4,5-F3)] (cysteine pairing not given here, also called Myristoyl-CRPR-Nle-CKHCR-Aib-R-Nle-(3,4,5-trifluoro-)F) [MM300]
1.11
[pGlu]RPR[Nle]CKHCR[Aib]R[Nle][Phe(3,4,5-F3)] (cysteine pairing not given here) [MM297]
1.74
CRPR[Nle]CHKCR[Aib]R[Nle][Phe(3,4,5-F3)] (cysteine pairing not given here, also called CRPR-Nle-CHKCR-Aib-R-Nle-(3,4,5-trifluoro-)F) [MM302]
1.23
CRPR[Nle]CKH[Abu]R[Aib]R[Nle][Phe(3,4,5-F3)] (cysteine pairing not given here) [MM299]
0.79
CRPR[Nle]CKHCR[Aib]R[Nle][Phe(3,4,5-F3)] (cysteine pairing not given here, also called CRPR-Nle-CKHCR-Aib-R-Nle-(3,4,5-trifluoro-)F) [MM193]
1.28
QRPR[Nle]CKHCR[Aib]R[Nle][Phe(3,4,5-F3)] (cysteine pairing not given here, also called QRPR-Nle-CKHCR-Aib-R-Nle-(3,4,5-trifluoro-)F) [MM262]
1.53
CRPRLCHKCRPRLC [MM107]
2.26
CRPR[Nle][Abu]KHCR[Aib]R[Nle][Phe(3,4,5-F3)] (cysteine pairing not given here) [MM298]
1.20
CRPRLCKHCRPRLC (disulfide 1-6, 9-14, Previously published macrocyclic comparator; also called cyclo(1-6)CRPRLC-KH-cyclo(9-14)CRPRLC) [MM54]
1.91

Consider the record given below.
// query log10 Ki value for entry CRPRLCKHCRPRLC (Linear peptide) [MM108]
2.15
